biological target: T1, HSP70 (human HSP70; the antigen of the binning, humanization and variant binding assays) (human, UniProt P0DMV8 1-641, limits assumed); experiment: BLI, anti-human Fc capture, antigen dilution series, 1:1 fit
T1 construct: also called hu HSP70
T1 sequence (P0DMV8 whole entry, change not shown): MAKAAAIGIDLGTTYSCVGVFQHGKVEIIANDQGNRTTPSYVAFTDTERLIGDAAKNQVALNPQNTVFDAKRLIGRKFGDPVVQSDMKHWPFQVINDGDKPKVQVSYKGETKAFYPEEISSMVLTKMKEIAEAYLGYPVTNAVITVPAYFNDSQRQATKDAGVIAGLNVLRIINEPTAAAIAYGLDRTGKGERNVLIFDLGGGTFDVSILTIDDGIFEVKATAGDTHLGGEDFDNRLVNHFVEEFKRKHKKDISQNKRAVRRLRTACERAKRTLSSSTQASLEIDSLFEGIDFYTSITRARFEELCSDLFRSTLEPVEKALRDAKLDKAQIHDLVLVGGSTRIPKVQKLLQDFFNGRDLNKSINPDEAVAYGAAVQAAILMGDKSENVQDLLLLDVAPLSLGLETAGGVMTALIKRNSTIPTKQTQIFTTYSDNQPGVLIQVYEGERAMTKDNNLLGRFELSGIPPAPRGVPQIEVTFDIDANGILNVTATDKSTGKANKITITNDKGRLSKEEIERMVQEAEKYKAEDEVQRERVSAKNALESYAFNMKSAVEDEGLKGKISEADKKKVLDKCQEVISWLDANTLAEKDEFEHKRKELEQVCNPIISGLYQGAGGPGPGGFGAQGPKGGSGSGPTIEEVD
As shown below, each of these binders has a reported kon value.

| binder | kon [M⁻¹ s⁻¹] |
| --- | --- |
| h77A-1.17 (antibody, V domains shown, captured by anti-human Fc) VH: QIQLVQSGAEVKKPGASVKVSCKASGYTFTKYGMNWVRQAPGQGLEWMGWINTYTGEPTYADDFKGRFTFTTDTSTSTAYMELRSLRSDDTAVYFCARYDHSMDYWGQGTLVTVSS VL: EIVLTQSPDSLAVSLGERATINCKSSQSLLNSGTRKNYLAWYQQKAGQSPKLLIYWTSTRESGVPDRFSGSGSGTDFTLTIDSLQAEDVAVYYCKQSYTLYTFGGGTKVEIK | 61400 |
| h77A-1.16 (antibody, V domains shown, captured by anti-human Fc) VH: QIQLVQSGAEVKKPGASVKVSCKASGYTFTKYGMNWVRQAPGQGLEWMGWINTYTGEPTYADDFKGRFTFTTDTSTSTAYMELRSLRSDDTAVYFCARYDHAMDYWGQGTLVTVSS VL: EIVLTQSPDSLAVSLGERATIKCKSSQSLLNSGTRKNYLAWYQQKAGQSPKLLIYWTSTRESGVPDRFSGSGSGTDFTLTIDSLQAEDVAVYYCKQSYTLYTFGGGTKVEIK | 54000 |
| h77A-1.71 (antibody, V domains shown, captured by anti-human Fc) VH: QIQLVQSGSEVKKPGASVKVSCKASGYTFTNYGMNWVRQAPGQGLEWMGWINTYTGEPTYADDFKGRFTFTTDTSTSTAYMDLRSLRSDDTAVYFCARYDHAMDYWGQGTLVTVSS VL: EIVLTQSPDSLSVSLGERATIKCKSSQSLLNSGTRKNYLAWYQQKAGQSPKLLIYWTSTRESGVPDRFSGSGSGTDFTLTIDSLQTEDVAVYYCKQSYTLYTFGGGTKVEIK | 49000 |
| h77A-1.10 (antibody, V domains shown, captured by anti-human Fc) VH: QIQLVQSGDEVKKPGASVKVSCKASGYTFTNYGMNWVRQAPGQGLEWMGWINTYTGEPTYADDFKGRFTFTTDTSTSTAYMELRSLRSDDTAVYFCARYDHAMDYWGQGTLVTVSS VL: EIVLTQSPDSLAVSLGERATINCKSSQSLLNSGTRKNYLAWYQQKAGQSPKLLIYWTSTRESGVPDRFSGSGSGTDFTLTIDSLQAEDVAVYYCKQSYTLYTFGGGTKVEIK | 58400 |
